- Test system: d-U937 cells
- test: Accumulation of β catenin in d-U937 cells (assay m)
- Assay type: cell-based, human
- condition-context: test compound 1 μg/mL; percentage relative to Reference Compound at 1 μg/mL
- Protocol: U937 cells, a human monocytic cell line, are differentiated into macrophage-type cells by incubation with PMA; (100 ng/mL) for between 48 to 72 hr. The cells are then incubated with either final concentrations of test compound or vehicle for 18 hr. The induction of β-catenin by the test compounds is stopped by replacing the media with 4% formaldehyde solution. […] The measured OD450-655 readings are corrected for cell number by dividing the OD450-655 by the OD595 readings.
Catalogue of % β-catenin induction values
reported-metric: % β-catenin induction (%)

compound-structure-string	units-label	numeric-result
COc1c(NC(=O)Nc2ccc(Oc3ccnc(Nc4ccccc4)c3)c3ccccc23)cc(C(C)(C)C)cc1P(C)(C)=O	%	5.0
COc1c(NC(=O)Nc2ccc(Oc3ccnc(Nc4ccccc4)c3)c3ccccc23)cc(C(C)(C)C)cc1C(=O)NCCN1CCC1	%	5.0
COc1c(NC(=O)Nc2ccc(Oc3ccnc(Nc4cnccn4)c3)c3ccccc23)cc(C(C)(C)C)cc1P(C)(C)=O	%	50.5
COc1c(NC(=O)Nc2ccc(Oc3ccnc(Nc4ccccc4)c3)c3ccccc23)cc(C(C)(C)C)cc1C(=O)NCCN1CCOCC1	%	−0.5
